test system: human lung cancer cells A549; test: Cell viability test (Resazurin), A549 cells; assay type: cell-based; conditions: Homo sapiens, A549, A549 cells; grade of the IC50 of Table 2; read-out: evaluation of ability to inhibit cell growth activity (IC50)
pIC50: −log10 of the molar value.

>  <compound>
COC1O[C@]23C=C[C@@H]4[C@@]1(CC[C@]1(C)[C@@H]([C@H](C)C/C=C/C(C)(C)O)CC[C@@]41C)[C@@H]2CC[C@H](O)C3(C)C (stereo partly shown) [Compound 19]

>  <pIC50>
4.19 to 4.80

$$$$
>  <compound>
CC(C)=C[C@H](O)C[C@@H](C)[C@H]1CC[C@@]2(C)[C@@H]3[C@@H](O)C=C4[C@@H](CC[C@H](O)C4(C)C)[C@]3(C=O)CC[C@]12C [Compound 2]

>  <pIC50>
> 5.10

$$$$
>  <compound>
CC(=O)O[C@H]1C=C2[C@@H](CC[C@H](O)C2(C)C)[C@]2(C=O)CC[C@]3(C)[C@@H]([C@H](C)C/C=C/C(C)(C)O)CC[C@@]3(C)[C@H]12 [Compound 9]

>  <pIC50>
4.19 to 4.80

$$$$
>  <compound>
CC(=O)O[C@H]1CC[C@@H]2C(=C[C@H](O)[C@@H]3[C@@]2(C=O)CC[C@]2(C)[C@@H]([C@H](C)C[C@H](C=C(C)C)OC(C)=O)CC[C@@]32C)C1(C)C [Compound 6]

>  <pIC50>
> 5.10

$$$$
>  <compound>
CO[C@H]1C=C2[C@@H](CC[C@H](O)C2(C)C)[C@]2(C=O)CC[C@]3(C)[C@@H]([C@H](C)C/C=C/C(C)(C)OC)CC[C@@]3(C)[C@H]12 [Compound 23]

>  <pIC50>
4.80 to 5.10

$$$$
>  <compound>
CO[C@@H]1O[C@]23C=C[C@@H]4[C@@]1(CC[C@]1(C)[C@@H]([C@H](C)C/C=C/C(C)(C)OC)CC[C@@]41C)[C@@H]2CC[C@H](O)C3(C)C [Compound 15]

>  <pIC50>
< 3.59

$$$$
>  <compound>
CC(=O)O[C@H]1C=C2[C@@H](CC[C@H](OC(C)=O)C2(C)C)[C@]2(C=O)CC[C@]3(C)[C@@H]([C@H](C)C[C@H](C=C(C)C)OC(C)=O)CC[C@@]3(C)[C@H]12 [Compound 3]

>  <pIC50>
4.80 to 5.10

$$$$
>  <compound>
CC(=O)O[C@H]1C=C2[C@@H](CC[C@H](OC(C)=O)C2(C)C)[C@]2(C=O)CC[C@]3(C)[C@@H]([C@H](C)C[C@@H](O)C=C(C)C)CC[C@@]3(C)[C@H]12 [Compound 5]

>  <pIC50>
4.80 to 5.10

$$$$
>  <compound>
C[C@H](C/C=C/C(C)(C)O)[C@H]1CC[C@@]2(C)[C@@H]3[C@@H](O)C=C4[C@@H](CC[C@H](O)C4(C)C)[C@]3(C=O)CC[C@]12C [Compound 1]

>  <pIC50>
< 3.59

$$$$
>  <compound>
COC1O[C@]23C=C[C@@H]4[C@@]1(CC[C@]1(C)[C@@H]([C@H](C)C[C@H](C=C(C)C)OC)CC[C@@]41C)[C@@H]2CC[C@H](O)C3(C)C (stereo partly shown) [Compound 16]

>  <pIC50>
< 3.59

$$$$
